molecular target: hCMV UL128, UL130 and UL131A co-expressed in HEK293T cells (human cytomegalovirus, UniProt P16837 1-171; P16772 1-214); test: cell-based or functional assay
Sequence (P16837 whole entry, chain 1 of 2): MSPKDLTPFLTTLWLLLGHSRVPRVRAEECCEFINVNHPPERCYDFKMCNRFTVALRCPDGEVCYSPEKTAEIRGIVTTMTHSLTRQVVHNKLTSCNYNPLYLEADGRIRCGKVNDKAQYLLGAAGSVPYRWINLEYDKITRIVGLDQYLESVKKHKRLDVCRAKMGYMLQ
Sequence (P16772 whole entry, chain 2 of 2): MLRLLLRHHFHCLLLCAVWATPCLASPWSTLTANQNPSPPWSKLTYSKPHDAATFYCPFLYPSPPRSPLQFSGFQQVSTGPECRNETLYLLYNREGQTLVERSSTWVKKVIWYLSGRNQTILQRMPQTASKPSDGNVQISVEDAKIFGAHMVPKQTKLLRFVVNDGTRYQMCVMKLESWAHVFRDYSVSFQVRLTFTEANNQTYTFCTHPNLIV
Exercise: state measured 50% Neutralization ARPE (hCMV VR1814) for each of the binders provided.

Which 50% Neutralization ARPE (hCMV VR1814) is reported for this binder? 7I13 (antibody, V domains shown, human IgG mAb) VH: QVQLVESGGGVVQPGRSLRLSCAASGFTFSNYGMHWVRQGPGKGLEWVAVISYDASSKYYTDSVQGRFTISRDNSKNTLFLQMNSLRGEDTAVYYCAKALRYLDWFLSDPFDYWGQGTLVTVSS VL: EIVLTQSPGTLSLSPGERATLSCRASQSVSSDFLAWYQQKPGQAPRLLIYGASSRATGIPDRFSGSGSGTDFTLTISRLEPEDFAVYYCQQYAASPPFGQGTRLEIK
< 0.01 µg/mL

Which 50% Neutralization ARPE (hCMV VR1814) is reported for this binder? 2C12 (antibody, V domains shown, human IgG mAb; also called 2C12-biotin) VH: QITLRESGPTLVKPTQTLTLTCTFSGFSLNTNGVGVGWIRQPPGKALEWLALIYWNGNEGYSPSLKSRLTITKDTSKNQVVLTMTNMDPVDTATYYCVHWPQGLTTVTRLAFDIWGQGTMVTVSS VL: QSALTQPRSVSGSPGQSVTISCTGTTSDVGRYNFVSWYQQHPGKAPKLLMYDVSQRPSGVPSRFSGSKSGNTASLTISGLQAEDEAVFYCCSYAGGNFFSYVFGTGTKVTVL
< 0.01 µg/mL

Which 50% Neutralization ARPE (hCMV VR1814) is reported for this binder? 9I6 (antibody, V domains shown, human IgG mAb; also called 9I6-biotin; 916) VH: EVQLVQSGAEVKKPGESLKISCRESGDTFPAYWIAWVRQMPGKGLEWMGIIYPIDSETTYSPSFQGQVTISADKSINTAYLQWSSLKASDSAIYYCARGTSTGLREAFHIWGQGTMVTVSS VL: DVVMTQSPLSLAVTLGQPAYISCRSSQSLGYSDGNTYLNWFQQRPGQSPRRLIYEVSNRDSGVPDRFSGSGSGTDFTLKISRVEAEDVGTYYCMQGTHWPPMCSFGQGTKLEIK
< 0.001 µg/mL
